- assay.system: NL20 human bronchial epithelial cells expressing human Z-AAT (Homo sapiens, UniProt P01009, E366K)
- Sequence (P01009 25-418 E366K): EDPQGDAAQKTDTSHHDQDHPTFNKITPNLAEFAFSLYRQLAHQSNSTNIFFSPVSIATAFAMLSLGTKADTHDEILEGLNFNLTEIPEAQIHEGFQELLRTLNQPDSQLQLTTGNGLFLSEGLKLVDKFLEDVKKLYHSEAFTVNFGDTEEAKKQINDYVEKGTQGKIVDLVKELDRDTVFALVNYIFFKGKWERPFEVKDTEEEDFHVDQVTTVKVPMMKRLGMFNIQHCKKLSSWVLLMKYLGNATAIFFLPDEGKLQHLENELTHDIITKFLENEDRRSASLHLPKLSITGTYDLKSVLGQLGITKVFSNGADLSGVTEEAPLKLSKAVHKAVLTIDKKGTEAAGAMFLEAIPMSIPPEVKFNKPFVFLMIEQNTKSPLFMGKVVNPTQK
- test.details: AAT Function Assay (MSD Assay NL20-SI Cell Line)
- test.conditions: read-out: NL20 Functional EC50
observation.type: EC50

{"compound": "OC[C@H](O)[C@@H](O)COc1nc(C2CCOCC2)c(-c2ccc(F)cc2)c2ccc(O)cc12 [Compound 136]", "EC50": "> 3000 nM"}
{"compound": "Cc1cc(-c2c(C(C)C)nc(CCCC(=O)O)c3cc(O)ccc23)ccc1F [Compound 80]", "EC50": "< 1200 nM"}
{"compound": "O=C(O)c1ccc(Oc2nc(C3CCOCC3)c(-c3ccc(F)cc3)c3ccc(O)cc23)cn1 [Compound 119]", "EC50": "< 1200 nM"}
{"compound": "CC(C)c1nc(O[C@H]2C[C@H](C(=O)O)C2)c2cc(O)ccc2c1-c1ccc(Cl)cc1 [Compound 166]", "EC50": "< 1200 nM"}
{"compound": "Cc1cc(-c2c(C(C)C)c(NC3CC(C(=O)O)C3)nc3c(O)cccc23)ccc1F (stereo not drawn) [Compound 353]", "EC50": "> 3000 nM"}
{"compound": "CC(C)(CO)c1nc(O[C@H]2C[C@H](C(=O)O)C2)c2cc(O)ccc2c1-c1ccc(F)cc1 [Compound 6]", "EC50": "< 1200 nM"}

According to the records, this compound Cc1cc(-c2c(C(C)C)c(NC3CC(O)C3)nc3cc(O)ccc23)ccc1F (single isomer, unassigned) [Compound 285] displays EC50 of 1200 to 3000 nM

According to the records, this compound CC(C)c1c(N2CC[C@@H](C(=O)O)C2)nc2cc(O)ccc2c1-c1ccc(F)cc1 [Compound 258] displays EC50 of < 1200 nM

According to the records, this compound Oc1ccc2c(-c3ccc(F)cc3)c(C3CCOCC3)nc(OCC3COC3)c2c1 [Compound 130] displays EC50 of 1200 to 3000 nM

According to the records, this compound CC(CNc1nc2cc(O)ccc2c(-c2ccc(F)cc2)c1C1CCOCC1)C(=O)O (stereo not drawn) [Compound 224] displays EC50 of > 3000 nM

According to the records, this compound O=C(O)CC1(Nc2nc3cc(O)ccc3c(-c3ccc(F)cc3)c2C2CCOCC2)CCC1 [Compound 223] displays EC50 of > 3000 nM

According to the records, this compound O=C(O)C1(F)CN(c2nc3cc(O)ccc3c(-c3ccc(F)cc3)c2C2CCOCC2)C1 [Compound 233] displays EC50 of > 3000 nM

According to the records, this compound O=C(O)[C@H]1C[C@H](Nc2nc(C3CCOCC3)c(-c3ccc(F)c(F)c3)c3cccc(O)c23)C1 [Compound 343] displays EC50 of < 1200 nM

According to the records, this compound O=C(O)C1(COc2nc(C3CCOCC3)c(-c3ccc(F)cc3)c3ccc(O)cc23)CC1 [Compound 125] displays EC50 of < 1200 nM

According to the records, this compound O=C(O)C1CCC(COc2nc(C3CCOCC3)c(-c3ccc(F)cc3)c3ccc(O)cc23)O1 (stereo not drawn) [Compound 128] displays EC50 of 1200 to 3000 nM

Reference source for all entries: patent US12662471B2
